# TGI values compiled below
Test system: SF-268 CNS
RUN_DESCRIPTION: NCI tumour cell line growth inhibition, 48 h
VALUE_TYPE: TGI

COMPOUND	REPORTED_RESULT
CCN(CC)CCCNc1ccc([N+](=O)[O-])c2nc3ccc(OC)cc3c(N)c12	3.57 µM
CCN(CC)CCN1C(=O)C2C3C(=O)CC(C)(CC3C)C2C1=O (stereo not drawn)	> 100 µM
CN=C(N)N=Nc1c(O)[nH]c2ccccc12	> 100 µM
CC1(C)S[C@H](CN)N[C@H]1C(=O)OC(c1ccccc1)c1ccccc1	> 100 µM
COc1ccc(-c2[nH]nc(N)c2-c2cc(OC)c3c(c2)OCO3)cc1	> 100 µM
CC12C(=C(C#N)C(=N)N1c1ccc(Cl)c(Cl)c1)C=C(O)CC2SCCS(=O)(=O)O (stereo not drawn)	> 100 µM
CCCCCCCCCC(CCCC(O)CC(=O)O)OC1OC(COC2OC(C)C(OC(C)=O)C(O)C2O)C(O)C(O)C1OC1OC(CO)C(O)C(O)C1OC1OC(C)C(OC(=O)CC(C)C)C(O)C1O (stereo not drawn)	> 35 µM
CCOC(=O)c1c(-c2cccc(Cl)c2)c(C(=O)OC)c(C)c2sc(C=O)nc12	38.6 µM
COC1[C@H](NC(=O)OC(C)(C)C)C(=O)N1Cc1ccccc1 (stereo partly drawn)	> 100 µM
CCN(CC)c1ccc2cc(C(=O)NCc3ccccc3)c(=N)oc2c1	> 100 µM
CCOc1ccc2c(c1)CN(Cc1ccc(Cl)cc1)CO2	> 100 µM
COc1ccccc1-n1c(NN)nc2ccc(Br)cc2c1=O	> 100 µM
Cc1cc(=O)n(-c2c(C)cccc2Cl)c(/C=C(\O)c2ccncc2)n1	> 100 µM
COc1cc(C2c3[nH]c4ccccc4c3[C@@H](Nc3ccc(C#N)cc3)[C@H]3COC(=O)N23)cc(OC)c1O (stereo partly drawn)	0.909 µM
CN(NC1OC(CO)C(O)C(O)C1O)c1ccccc1 (stereo not drawn)	> 100 µM
CC1C(=O)c2cc3c(cc2CCN(C)Cc2c1ccc1c2OCO1)OCO3 (stereo not drawn)	> 75 µg/mL
NC(=O)c1nnsc1NN=O	> 100 µM
Cc1ccc(NC(=O)CSc2nnc(Cc3ccccc3)o2)cc1	> 100 µM
N#Cc1ccccc1C#C/C=C\C#CC#C/C=C\C#Cc1ccccc1C#N	> 100 µM
CCCCCC[C@@H](C)Nc1nc2ccccc2c2occc12	38.7 µM
Cc1ccc(Cl)cc1NC(=O)c1cc2ccccc2cc1O	> 32.6 µM
N=c1ccc2nc(N)nn(O)c-2c1	> 100 µM
Cc1oc(N)c(S(=O)(=O)c2cc3ccccc3n(O)c2=N)c1C	> 100 µM
O=C(Nc1ccccc1C(F)(F)F)c1ccc(NC2=C(Cl)C(=O)N(Cc3ccccc3)C2=O)cc1	94.6 µM
C/C(=N/O)c1ccc2c(c1)/C(=N/O)c1ccccc1-2	> 100 µM
O=C(COc1ccc(OCC(=O)N2C(=O)CN(c3ccccc3)C2=S)cc1)N1C(=O)CN(c2ccccc2)C1=S	> 100 µM
CSC1=C(C(=O)Nc2ccc(C)cc2)C(N)=NC1=O	> 100 µM
Nc1nnc(CCC(=O)Nc2cc(Cl)ccc2Cl)n1N	> 100 µM
COc1cc(/C=N/c2ccccn2)cc(OC)c1OC	> 100 µM
Nc1ncnc2c1ncn2-c1ccc([N+](=O)[O-])cn1	> 100 µM
Cc1ccc(-c2nc(N3CCNCC3)c3oc(-c4ccccc4)nc3n2)cc1	5.07 µM
O=c1c2ccccc2nc(-c2ccccc2Cl)n1-c1nnc(C(F)(F)F)s1	> 100 µM
Cc1cc(C)c2c(c1)N[S@@](=O)S2	34.5 µM
CCOc1ccc(/C=C(\Cl)c2ccc(OC)cc2)cc1	> 100 µM
CCOC(=O)c1sc2c(c1O)c(=O)n(-c1ccccc1)c(=S)n2-c1ccccc1	> 100 µM
Cc1cccc(/C=N\NC(=S)N2CCCCC2)n1	> 100 µM
COc1cc(C2c3cc4c(cc3[C@@H](Nc3ccc(Oc5ccccc5)cc3)C3COC(=O)[C@H]23)OCO4)cc(OC)c1O (stereo partly drawn)	> 100 µM
O=C1c2ccccc2C(=O)c2c1ccc1c(=O)n(-c3ccccc3C(F)(F)F)nnc21	> 100 µM
O=C(Nc1cccc(-n2cc(-c3ccncc3)c(-c3ccc(O)c(Cl)c3)n2)c1)c1cc(C(F)(F)F)cc(C(F)(F)F)c1	> 50 µM
N/C(=N\N=C\c1cc(I)cc(I)c1O)NO	> 100 µM
CC(c1ccccc1)[C@@H](C(=O)Nc1ccc(I)cc1F)N1C(=O)N[C@H](c2ccc(OC[C@H](O)CO)cc2)C1=O (stereo partly drawn)	> 25 µM
C[C@@H]1CCC2C(C)(C)C(/C=C\C=O)C3(C)OC213 (stereo partly drawn)	> 100 µM
CC1=CC(O)C(C(O)(C(F)(F)F)C(F)(F)F)C(C)(C)C1 (stereo not drawn)	> 10 µM
